B1: NF2 (merlin) isoform 7, human, full length (507 aa, lacks exons 2-3 = isoform-1 residues 39-121; exon-16 C-terminus), P35240-4 (parent)
chain: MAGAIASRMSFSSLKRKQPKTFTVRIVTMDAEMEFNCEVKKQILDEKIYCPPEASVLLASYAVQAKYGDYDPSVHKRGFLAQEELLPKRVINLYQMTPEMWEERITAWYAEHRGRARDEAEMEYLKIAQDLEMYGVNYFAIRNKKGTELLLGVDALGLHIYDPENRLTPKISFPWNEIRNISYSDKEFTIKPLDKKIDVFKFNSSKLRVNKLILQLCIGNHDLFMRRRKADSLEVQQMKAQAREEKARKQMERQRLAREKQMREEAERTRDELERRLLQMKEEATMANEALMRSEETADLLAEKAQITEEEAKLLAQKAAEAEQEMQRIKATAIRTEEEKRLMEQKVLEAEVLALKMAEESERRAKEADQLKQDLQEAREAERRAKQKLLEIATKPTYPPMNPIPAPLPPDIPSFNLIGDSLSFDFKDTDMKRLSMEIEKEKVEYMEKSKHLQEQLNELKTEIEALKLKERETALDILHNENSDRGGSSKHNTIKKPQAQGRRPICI

- Variants of: B1
- assay: reverse yeast two-hybrid deep mutational scan (rY2H-seq): NF2 isoform 7 mutant library as bait mated with wild-type prey strains; selection on medium lacking adenine for non-interacting pairs; NextSeq paired-end sequencing; enrichment vs …
- run-conditions: with KDM1A (lysine-specific histone demethylase 1A; the table's label AOF2 is a gene synonym of KDM1A), O60341; yeast diploids after mating (RBait_S3 x RPrey_S3), 30 °C, selection for reporter genes on NB agar; human ABL2 co-expressed as the kinase-dead K35M mutant …; HIGHER = WEAKER BINDING (the opposite of display enrichments): higher = stronger loss of interaction: reverse Y2H selects yeast in which bait and prey do NOT interact (growth without adenine), so a …; hits-only table; scale: rY2H score; numbering: uniprot, sequence starts at 1
measure: enrichment

For orientation, consider the following solved cases.
variant_name=K15A meas_value=13.9
variant_name=M251A meas_value=4.5

Your task in this section: give enrichment for each listed record.
1. V74C
2. D411C
3. K15E

[out]
1. 2.58
2. 2.42
3. 3.69

Parameters: items (list). Returns: enrichment for each item.
1. K191Y
2. R379A
3. T336L
4. T308D
5. Y398F
6. K330A
7. E344V
8. A385L

[out]
1. 1.65
2. 2
3. 2.98
4. 2.33
5. 1.87
6. 1.85
7. 1.58
8. 1.79

State the recorded enrichment for every item in the following list.
1. R471A
2. I418K
3. P87S
4. N482L
5. S423E
6. R248C
7. L353A

[out]
1. 3.18
2. 1.67
3. 2.56
4. 2.71
5. 9.11
6. 1.52
7. 2.32

# map each variant to its enrichment
1. L422A
2. L422K
3. T394L
4. E344G
5. P407K
6. K318A
7. A406I

[out]
1: 2.07; 2: 1.93; 3: 13.8; 4: 10.3; 5: 4.15; 6: 3.56; 7: 6.43
